FYI, the data here is from paper PMC3618987.

Recorded inhibition at 100 µM values for a group of compounds are listed next.
- tested-target: amyloid-β (1-42) peptide (Homo sapiens, UniProt P05067)
- Construct: Stock solution of amyloid-β (1-42) peptide (Anaspec; 1384 µM in 1% NH4OH); purchased Anaspec
- Sequence (P05067 672-713 limits assumed): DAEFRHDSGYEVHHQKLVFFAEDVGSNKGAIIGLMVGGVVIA
- method: Amyloid β aggregation assay (ThT fluorescence)
- Type: biochemical
- condition-summary: Aβ(1-42), 48 h, read-out: Anti-Aβ aggregation % Inhibition (at 100 µM) (±SEM)

>  <compound>
COc1cc(/C=C/C(=O)NCc2cn(C[C@@H](N)Cc3c[nH]c4ccccc34)nn2)ccc1O [Compound 12g]

>  <inequality-symbol>
=

>  <inhibition at 100 µM (%)>
46.1

$$$$
>  <compound>
COc1cc(/C=C/C(=O)NCc2cn(C[C@@H]3Cc4c([nH]c5ccccc45)CN3)nn2)ccc1O

>  <inequality-symbol>
>

>  <inhibition at 100 µM (%)>
50

$$$$
>  <compound>
N[C@@H](Cc1c[nH]c2ccccc12)Cn1cc(CNC(=O)CCc2ccc(O)cc2)nn1 [Compound 12e]

>  <inequality-symbol>
=

>  <inhibition at 100 µM (%)>
36

$$$$
>  <compound>
COc1cc(/C=C/C(=O)CC(=O)/C=C/c2ccc(O)c(OC)c2)ccc1O [Curcumin, reference compound]

>  <inequality-symbol>
=

>  <inhibition at 100 µM (%)>
82.9

$$$$
